Sourced from patent US20260166021A1

method.description: Solubility of Form C in binary solvent systems (TABLE 22)
Assay type: physicochemical
experimental.parameters: organic solvent or mixture; MEK, ratio of n-heptane to primary 3.0 (2nd test point)
outcome.measure: solubility (µg/mL)
Value expressed in µg/mL; do not type the unit.

Exercise: Note solubility for the molecule shown: CC[C@H](C)C(=O)N1CCC(NC(=O)Nc2ccc(OC(F)(F)F)c(F)c2)CC1 [Form C]
Key: 5000

###

method.description: Solubility screening of Formula (I) in crystallization solvents at RT and 50° C. (TABLE 3)
Format: physicochemical
experimental.parameters: 2-butanone (MEK), organic solvent or mixture, thermodynamic from solid, MEK; RT; read-out: Solubility Range
From the text: This example covers crystallization of Formula (I) in multiple solvent systems. Solvents were selected to span a range of polarities, functionalities, and classifications according to the International Conference on Harmonization (ICH) with preferences given to class II and class III solvents. […] After each addition of solvent, the vials were shaken and visually inspected for residual solids. […]
outcome.measure: solubility

Exercise: Note solubility for the compound shown: `CC[C@H](C)C(=O)N1CCC(NC(=O)Nc2ccc(OC(F)(F)F)c(F)c2)CC1`
Key: ≥ 50.4 mg/mL

###

method.description: Solubility of Form C in binary solvent systems (TABLE 22)
Format: physicochemical
experimental.parameters: ethyl acetate/n-heptane, organic solvent or mixture; EtoAC, ratio of n-heptane to primary 2.2 (3rd test point)
outcome.measure: solubility (µg/mL)
Value expressed in µg/mL; do not type the unit.

Exercise: Note solubility for the compound shown: CC[C@H](C)C(=O)N1CCC(NC(=O)Nc2ccc(OC(F)(F)F)c(F)c2)CC1 [Form C]
Key: 3000

###

method.description: Solubility screening of Formula (I) in crystallization solvents at RT and 50° C. (TABLE 3)
Type: physicochemical
experimental.parameters: NMP, organic solvent or mixture, thermodynamic from solid, NMP; RT; read-out: Nominal Solubility
outcome.measure: solubility
Please state the number and follow it with the unit.

Exercise: Note solubility for the compound shown: `CC[C@H](C)C(=O)N1CCC(NC(=O)Nc2ccc(OC(F)(F)F)c(F)c2)CC1`
Key: 55.2 mg/mL

###

method.description: Equilibrium-solubility screening in solvents and excipients
Assay type: physicochemical
experimental.parameters: DI water, water, thermodynamic from solid, approximately 24 hours
outcome.measure: solubility thermodynamic at 24 h

Exercise: Note solubility thermodynamic at 24 h for the compound shown: CC[C@H](C)C(=O)N1CCC(NC(=O)Nc2ccc(OC(F)(F)F)c(F)c2)CC1 [Form D]
Key: < 0.1 mg/mL

###

method.description: Solubility screening of Formula (I) in crystallization solvents at RT and 50° C. (TABLE 3)
Assay type: physicochemical
experimental.parameters: acetonitrile (ACN), organic solvent or mixture, thermodynamic from solid, ACN; RT; read-out: Nominal Solubility
outcome.measure: solubility (mg/mL)
Value expressed in mg/mL; do not type the unit.

Exercise: Note solubility for the compound shown: `CC[C@H](C)C(=O)N1CCC(NC(=O)Nc2ccc(OC(F)(F)F)c(F)c2)CC1`
Key: 48.3

###

method.description: Solubility screening of Formula (I) in crystallization solvents at RT and 50° C. (TABLE 3)
Assay type: physicochemical
experimental.parameters: DMSO, organic solvent or mixture, thermodynamic from solid, DMSO; RT; read-out: Nominal Solubility
outcome.measure: solubility
Please state the number and follow it with the unit.

Exercise: Note solubility for the compound shown: `CC[C@H](C)C(=O)N1CCC(NC(=O)Nc2ccc(OC(F)(F)F)c(F)c2)CC1`
Key: 47.8 mg/mL
